testProtocol: AUC (0 to infinity) in CD-1 mouse at 10 mg/kg, po via gavage administered as single dose
Format: ADME, organism-based
Parameters: dose 10 mg/kg, route oral, time infinity
conditionsUsed: in vivo
Threshold check on AUC(0-inf): at or above 8000 ng·h/mL gives 1 (yes), strictly below gives 0 (no).

Does the reported AUC(0-inf) for CCSc1cc([C@](O)(CCN(C)C)[C@@H](c2cc3cc(Br)ccc3nc2OC)c2cccc3c2OCO3)cc(SCC)n1 (racemic) fall at or above the 8000 ng·h/mL mark?
0 (no)

I'd appreciate it if you could say whether COc1nc2ccc(Br)cc2cc1[C@@H](c1ccnc(OC)c1OC)[C@@](O)(CCN(C)C)c1cc(SC)nc(SC)c1 (racemic) has AUC(0-inf) at least equal to 8000 ng·h/mL.
0 (no)

Exam item: decide whether the reported AUC(0-inf) for CCOc1cc([C@](O)(CCN(C)C)[C@H](c2cccc(C)c2)c2cc3cc(Br)ccc3nc2OC)cc(OC)n1 (racemic) is at least 8000 ng·h/mL.
1 (yes)

Hi, just wondering whether COc1cc([C@](O)(CCN(C)C)[C@@H](c2cc3cc(Br)ccc3nc2OC)c2cccc(OC)c2F)cc(SC)n1 (racemic) shows AUC(0-inf) of 8000 ng·h/mL or higher.
0 (no)

Form field: AUC(0-inf) at least 8000 ng·h/mL? Entry: COc1nc2ccc(C#N)cc2cc1[C@@H](c1cccc(C)c1F)[C@@](O)(CCN(C)C)c1cc(SC)nc(SC)c1 (racemic)
0 (no)

Tell me whether AUC(0-inf) is at least 8000 ng·h/mL here: COc1cc([C@](O)(CCN(C)C)[C@@H](c2cc3cc(C#N)ccc3nc2OC)c2cccc(OC)c2F)cc(SC)n1 (racemic)
0 (no)

Could you please find out whether COc1nc2ccc(Br)cc2cc1[C@@H](c1ccccc1)[C@@](O)(CCN(C)C)c1cccc2ccccc12 has AUC(0-inf) that meets 8000 ng·h/mL or exceeds it?
1 (yes)

Does the reported AUC(0-inf) for COc1cc([C@](O)(CCN(C)C)[C@@H](c2cc3cc(Br)ccc3nc2OC)c2ccnc(OC)c2OC)cc(OC2CCC2)n1 (racemic) fall at or above the 8000 ng·h/mL mark?
1 (yes)

Can COc1cc([C@](O)(CCN(C)C)[C@@H](c2cc3cc(Br)ccc3nc2OC)c2ccnc(OC)c2OC)cc(OC(F)F)n1 (racemic) be said to have AUC(0-inf) at or above 8000 ng·h/mL?
1 (yes)

====

testProtocol: Intrinsic clearance in mouse liver microsomes assessed per mg protein
Assay type: ADME, Microsome
conditionsUsed: read-out: CLH
Each entry below carries its recorded microsomal CLint.
Hi! Could you send only the number? It should be in µL/min/mg, unit omitted.

Some compounds with recorded microsomal CLint:
1. CCSc1cc([C@](O)(CCN(C)C)[C@@H](c2cc3cc(C#N)ccc3nc2OC)c2cccc(C)c2F)cc(SCC)n1 (racemic) = 33
2. CCOc1cc([C@](O)(CCN(C)C)[C@@H](c2cc3cc(Br)ccc3nc2OC)c2cccc(OC)c2F)cc(OC)n1 (racemic) = 14
3. COc1nc2ccc(C#N)cc2cc1[C@@H](c1cccc(C)c1F)[C@@](O)(CCN(C)C)c1cc(SC)nc(SC)c1 (racemic) = 13

Record summary for COc1cc([C@](O)(CCN(C)C)[C@@H](c2cc3cc(Br)ccc3nc2OC)c2cccc(OC)c2F)cc(OC(F)F)n1 (racemic) : reported microsomal CLint = 6.4

Sure, the documented microsomal CLint for CCOc1cc([C@](O)(CCN(C)C)[C@H](c2cccc(C)c2)c2cc3cc(Br)ccc3nc2OC)cc(OC)n1 (racemic) is 7.8

====

testProtocol: Clearance in CD-1 mouse at 2 to 3 mg/kg, iv administered as single bolus dose
Type: ADME, organism-based
conditionsUsed: in vivo
Field 'label' (enum: criterion met / criterion not met). Set to criterion met when clearance is strictly under 10 mL/min/kg; else criterion not met.

1. COc1nc2ccc(Br)cc2cc1[C@@H](c1ccnc(OC)c1OC)[C@@](O)(CCN(C)C)c1cc(SC)nc(SC)c1 (racemic) = criterion not met
2. CCOc1cc([C@](O)(CCN(C)C)[C@@H](c2cc3cc(Br)ccc3nc2OC)c2c(OC)cncc2OC)cc(OC(C)C)n1 (racemic) = criterion met

Lab note: clearance threshold 10 mL/min/kg. Does this compound come in strictly under it? COc1cc([C@](O)(CCN(C)C)[C@@H](c2cc3cc(C#N)ccc3nc2OC)c2cccc(OC)c2F)cc(SC)n1 (racemic)
criterion not met

Hello, I'm reviewing records and need to know if clearance of CCOc1cc([C@](O)(CCN(C)C)[C@@H](c2cc3cc(Br)ccc3nc2OC)c2ccnc(OC)c2OC)cc(OC(C)C)n1 (racemic) is below 10 mL/min/kg. Could you check?
criterion met

Input COc1cc([C@](O)(CCN(C)C)[C@@H](c2cc3cc(C#N)ccc3nc2OC)c2ccnc(OC)c2OC)cc(N(C)C)n1 (racemic) ; condition: clearance strictly below 10 mL/min/kg. Does it hold?
criterion not met

Problem: For the compound CCSc1cc([C@](O)(CCN(C)C)[C@H](c2ccccc2)c2cc3cc(Br)ccc3nc2OC)cc(SCC)n1 (racemic) , is clearance under 10 mL/min/kg?
criterion not met

Take the compound COc1cc([C@](O)(CCN(C)C)[C@@H](c2cc3cc(Br)ccc3nc2OC)c2ccnc(OC)c2OC)cc(OC(F)F)n1 (racemic) and say whether its clearance is less than 10 mL/min/kg.
criterion met

Say whether its clearance is strictly beneath 10 mL/min/kg. Entry: CCSc1cc([C@](O)(CCN(C)C)[C@@H](c2cc3cc(C#N)ccc3nc2OC)c2cccc(C)c2F)cc(SCC)n1 (racemic)
criterion met

hey, is clearance for COc1cc([C@](O)(CCN(C)C)[C@@H](c2cc3cc(Br)ccc3nc2OC)c2cccc(OC)c2F)cc(OC(C)C)n1 (racemic) lower than 10 mL/min/kg or not?
criterion met

For this compound, is clearance lower than 10 mL/min/kg? COc1cc([C@](O)(CCN(C)C)[C@@H](c2cc3cc(C#N)ccc3nc2OC)c2cccc(C)c2F)cc(OC(F)F)n1 (racemic)
criterion not met

====

Entries and their measured microsomal CLint follow.
testProtocol: Intrinsic clearance in human liver microsomes assessed per mg protein
Assay type: ADME, Microsome
conditionsUsed: read-out: CLH
Field format: number, assumed µL/min/mg, no unit text.

Examples from the recorded data:
1. COc1cccc([C@H](c2cc3cc(C#N)ccc3nc2OC)[C@@](O)(CCN(C)C)c2cc(SC)nc(SC)c2)c1F (racemic) = 15
2. CCOc1cc([C@](O)(CCN(C)C)[C@H](c2cccc(C)c2)c2cc3cc(Br)ccc3nc2OC)cc(OC)n1 (racemic) = 4.4
3. CCSc1cc([C@](O)(CCN(C)C)[C@@H](c2cc3cc(Br)ccc3nc2OC)c2cccc3c2OCO3)cc(SCC)n1 (racemic) = 9.5

What the record says about COc1cccc([C@H](c2cc3cc(Br)ccc3nc2OC)[C@@](O)(CCN(C)C)c2cc(SC)nc(SC)c2)c1F (racemic) : microsomal CLint is 3.4

Data point: CCSc1cc([C@](O)(CCN(C)C)[C@H](c2ccccc2)c2cc3cc(Br)ccc3nc2OC)cc(SCC)n1 (racemic) ; microsomal CLint = 2.3

====

systemUnderTest: UniProtKB Q12809
testProtocol: Inhibition of human ERG
measuredQuantity: IC50

1) COc1cc([C@](O)(CCN(C)C)[C@@H](c2cc3cc(C#N)ccc3nc2OC)c2ccnc(OC)c2OC)cc(N(C)C)n1 (racemic) = 3.4 µM

Record COc1nc2ccc(Br)cc2cc1[C@@H](c1ccnc(OC)c1OC)[C@@](O)(CCN(C)C)c1cc(SC)nc(SC)c1 (racemic) . Reported IC50: 2.8 µM

Briefly, IC50 measured for COc1cc([C@](O)(CCN(C)C)[C@@H](c2cc3cc(Br)ccc3nc2OC)c2ccnc(OC)c2OC)cc(OC2CCC2)n1 (racemic) : > 10 µM

The compound CCSc1cc([C@](O)(CCN(C)C)[C@@H](c2cc3cc(Br)ccc3nc2OC)c2cccc3c2OCO3)cc(SCC)n1 (racemic) showed IC50 equal to > 10 µM

====

Measured pIC50 on Voltage-gated inwardly rectifying potassium channel KCNH2 (Homo sapiens) follows.
Sequence (Q12809 whole entry): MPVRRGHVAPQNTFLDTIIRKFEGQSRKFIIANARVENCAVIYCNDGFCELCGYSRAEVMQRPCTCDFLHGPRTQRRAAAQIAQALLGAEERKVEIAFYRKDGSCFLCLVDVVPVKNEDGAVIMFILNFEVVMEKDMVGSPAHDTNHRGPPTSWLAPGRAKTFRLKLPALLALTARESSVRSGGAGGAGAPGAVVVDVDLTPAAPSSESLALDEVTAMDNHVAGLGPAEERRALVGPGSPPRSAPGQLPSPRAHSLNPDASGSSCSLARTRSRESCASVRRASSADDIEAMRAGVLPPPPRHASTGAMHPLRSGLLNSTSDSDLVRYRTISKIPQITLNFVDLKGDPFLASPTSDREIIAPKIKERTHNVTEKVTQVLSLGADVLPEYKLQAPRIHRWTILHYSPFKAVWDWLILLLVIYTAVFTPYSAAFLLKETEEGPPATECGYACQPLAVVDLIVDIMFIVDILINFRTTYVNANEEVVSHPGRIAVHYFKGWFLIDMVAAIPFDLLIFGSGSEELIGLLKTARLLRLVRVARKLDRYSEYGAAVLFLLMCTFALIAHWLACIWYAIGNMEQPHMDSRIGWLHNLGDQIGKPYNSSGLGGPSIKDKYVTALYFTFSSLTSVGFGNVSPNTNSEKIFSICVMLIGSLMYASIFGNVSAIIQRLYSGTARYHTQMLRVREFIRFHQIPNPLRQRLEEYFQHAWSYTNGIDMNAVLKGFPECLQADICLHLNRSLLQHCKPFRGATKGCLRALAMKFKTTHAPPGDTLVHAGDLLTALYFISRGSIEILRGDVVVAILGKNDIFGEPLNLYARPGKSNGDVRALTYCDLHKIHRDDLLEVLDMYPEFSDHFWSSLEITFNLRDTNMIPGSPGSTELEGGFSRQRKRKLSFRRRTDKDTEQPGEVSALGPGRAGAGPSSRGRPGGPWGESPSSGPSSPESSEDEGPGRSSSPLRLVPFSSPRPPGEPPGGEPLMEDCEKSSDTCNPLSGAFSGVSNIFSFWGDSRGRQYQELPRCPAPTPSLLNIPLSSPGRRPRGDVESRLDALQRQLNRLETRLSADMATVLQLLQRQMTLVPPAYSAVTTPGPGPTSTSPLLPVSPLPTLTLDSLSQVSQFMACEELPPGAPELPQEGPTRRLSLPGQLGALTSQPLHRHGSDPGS
Answer as the number alone; pIC50 is minus log10 of concentration in mol/L.

1) CCSc1cc([C@](O)(CCN(C)C)[C@@H](c2cc3cc(C#N)ccc3nc2OC)c2ccnc(OC)c2OC)cc(SCC)n1 (racemic) = 5.82

Next compound, please.
Observed pIC50, Voltage-gated inwardly rectifying potassium channel KCNH2 (Homo sapiens), CCOc1cc([C@](O)(CCN(C)C)[C@@H](c2cc3cc(Br)ccc3nc2OC)c2ccnc(OC)c2OC)cc(OC)n1 (racemic) : 5.48
